- assay protocol: AUC (0 to 24 hrs) in Wistar Hannover rat at 100 mg/kg, po administered as crystalline anhydrous form in 2% (v/v) Tween 80/98% 0.5% (w/v) methyl cellulose in water formulation by LC-MS/MS analysis
- Format: ADME, organism-based
- details: in vivo
readout label: AUC(0-t) (ng·h/mL)
The reply should contain only the number, in ng·h/mL.

Per the record, CC(C)(C)[C@H](NC(=O)C(F)(F)F)C(=O)N1C[C@H]2[C@@H]([C@H]1C(=O)N[C@H](C#N)C[C@@H]1CCNC1=O)C2(C)C has AUC(0-t) of 18000

----------
- assay protocol: Passive permeability across apical to basolateral side in dog RRCK cells incubated for 30 mins
- Type: ADME, cell-based, Canis lupus familiaris
- details: mdckii-le, 0.5 h
readout label: permeability

Solved cases (3 shown):
1) COC(=O)N[C@H](C(=O)N1C[C@H](C(F)(F)F)C[C@H]1C(=O)N[C@H](C#N)C[C@@H]1CCCNC1=O)C(C)C: 0.63 10^-6 cm/s
2) COC(=O)N[C@H](C(=O)N1C[C@H](C(F)(F)F)C[C@H]1C(=O)N[C@H](C#N)C[C@@H]1CCCNC1=O)C(C)(C)C: 0.4 10^-6 cm/s
3) CNC(=O)N[C@H](C(=O)N1C[C@H]2[C@@H]([C@H]1C(=O)N[C@H](C#N)C[C@@H]1CCNC1=O)C2(C)C)C(C)(C)C: 0.62 10^-6 cm/s

// COC(=O)N[C@H](C(=O)N1C[C@H](OC(F)F)C[C@H]1C(=O)N[C@H](C#N)C[C@@H]1CCNC1=O)C(C)(C)C : permeability value = 0.76 10^-6 cm/s

permeability reported for this compound COC(=O)N[C@H](C(=O)N1C[C@H]2[C@@H]([C@H]1C(=O)N[C@H](C#N)C[C@@H]1CCNC1=O)C2(C)C)C(C)(C)C : 0.61 10^-6 cm/s

So for CC(C)(C)[C@H](NC(=O)C(F)(F)F)C(=O)N1C[C@H]2[C@@H]([C@H]1C(=O)N[C@H](C#N)C[C@@H]1CCNC1=O)C2(C)C , the logged permeability turned out to be 1.03 10^-6 cm/s

# permeability of CC(C)(C)[C@H](NC(=O)C(F)(F)F)C(=O)N1C[C@H](C(F)(F)F)C[C@H]1C(=O)N[C@H](C#N)C[C@@H]1CCNC1=O = 0.71 10^-6 cm/s

----------
- assay protocol: AUC (0 to 24 hrs) in Wistar Hannover rat at 100 mg/kg, po administered as crystalline MTBE in 10% (v/v) ethanol/10% (v/v) capmul MCM/35% (v/v) PEG400/45% (v/v) Tween 80 formulation by LC-MS/MS analysis
- Assay type: ADME, organism-based
- details: in vivo
readout label: AUC(0-t) (ng·h/mL)
Give the value in ng·h/mL but do not write ng·h/mL after it.

The measured AUC(0-t) associated with CC(C)(C)[C@H](NC(=O)C(F)(F)F)C(=O)N1C[C@H]2[C@@H]([C@H]1C(=O)N[C@H](C#N)C[C@@H]1CCNC1=O)C2(C)C reads 68300

----------
- assay protocol: Cmax in Wistar Hannover rat at 10 mg/kg, po administered as ASD form in 2% Tween 80 (v/v) in 0.5% (w/v) methyl cellulose in water formulation by LC-MS/MS analysis
- Assay type: ADME, organism-based
- details: in vivo
// reported Cmax for each item listed
Reply with just the number (in ng/mL).

1. COC(=O)N[C@H](C(=O)N1C[C@H](C(F)(F)F)C[C@H]1C(=O)N[C@H](C#N)C[C@@H]1CCCNC1=O)C(C)C: 177

Proceed to the following item.
Looking up CC(C)(C)[C@H](NC(=O)C(F)(F)F)C(=O)N1C[C@H](OC(F)F)C[C@H]1C(=O)N[C@H](C#N)C[C@@H]1CCNC1=O , I found its Cmax recorded as 92.8

----------
Recorded Vd for the following compounds
- assay protocol: Volume of distribution at steady state in Wistar Hannover rat at 1 mg/kg, iv by LC-MS/MS analysis
- Format: ADME, organism-based
- details: in vivo, read-out: Vdss
Kindly provide the numeric value in L/kg only, without the unit symbol.

Here's what some known entries look like.
1. COC(=O)N[C@H](C(=O)N1C[C@H](OC(F)(F)F)C[C@H]1C(=O)N[C@H](C#N)C[C@@H]1CCNC1=O)C(C)(C)C: 0.87
2. CC(C)(C)[C@H](NC(=O)C(F)(F)F)C(=O)N1C[C@H](OC(F)F)C[C@H]1C(=O)N[C@H](C#N)C[C@@H]1CCNC1=O: 1.05

Kindly consider the entry below.
Vd reading for COC(=O)N[C@H](C(=O)N1C[C@H](C(F)(F)F)C[C@H]1C(=O)N[C@H](C#N)C[C@@H]1CCCNC1=O)C(C)C : 0.55

----------
- assay protocol: Cmax in Wistar Hannover rat at 10 mg/kg, po by LC-MS/MS analysis
- Format: ADME, organism-based
- details: in vivo
readout label: Cmax (ng/mL)
A number alone suffices; assume ng/mL.

1. COC(=O)N[C@H](C(=O)N1C[C@H](OC(F)(F)F)C[C@H]1C(=O)N[C@H](C#N)C[C@@H]1CCNC1=O)C(C)(C)C: 358

Next, consider the following compound.
Cmax in this record for COC(=O)N[C@H](C(=O)N1C[C@H](C(F)(F)F)C[C@H]1C(=O)N[C@H](C#N)C[C@@H]1CCCNC1=O)C(C)C : 310

----------
# half-life per entry
- assay protocol: Half life in Wistar Hannover rat at 1 mg/kg, iv by LC-MS/MS analysis
- Format: ADME, organism-based
- details: in vivo
// units = h; emit number, no label

Below, each entry is followed by its recorded half-life result.
1. COC(=O)N[C@H](C(=O)N1C[C@H](OC(F)(F)F)C[C@H]1C(=O)N[C@H](C#N)C[C@@H]1CCNC1=O)C(C)(C)C: 6
2. COC(=O)N[C@H](C(=O)N1C[C@H](C(F)(F)F)C[C@H]1C(=O)N[C@H](C#N)C[C@@H]1CCCNC1=O)C(C)C: 1.9

Now turn to the next compound.
Record CC(C)(C)[C@H](NC(=O)C(F)(F)F)C(=O)N1C[C@H](OC(F)F)C[C@H]1C(=O)N[C@H](C#N)C[C@@H]1CCNC1=O . Reported half-life: 5.1

----------
- assay protocol: Cmax in Wistar Hannover rat at 10 mg/kg, po administered as crystalline form in 2% Tween 80 (v/v) in 0.5% (w/v) methyl cellulose in water formulation by LC-MS/MS analysis
- Type: ADME, organism-based
- details: in vivo
readout label: Cmax (ng/mL)
Give the quantity in ng/mL, number only.

In plain terms, CC(C)(C)[C@H](NC(=O)C(F)(F)F)C(=O)N1C[C@H](OC(F)F)C[C@H]1C(=O)N[C@H](C#N)C[C@@H]1CCNC1=O has a documented Cmax of 272

----------
- assay protocol: AUC (0 to 24 hrs) in Wistar Hannover rat at 1 mg/kg, iv by LC-MS/MS analysis
- Format: ADME, organism-based
- details: in vivo
Recorded AUC(0-t) for the following molecules
The reply should be a number in ng·h/mL, with the unit left off.

The examples below pair each entry with its known result.
1. COC(=O)N[C@H](C(=O)N1C[C@H](C(F)(F)F)C[C@H]1C(=O)N[C@H](C#N)C[C@@H]1CCCNC1=O)C(C)C: 467
2. COC(=O)N[C@H](C(=O)N1C[C@H](OC(F)(F)F)C[C@H]1C(=O)N[C@H](C#N)C[C@@H]1CCNC1=O)C(C)(C)C: 650

Continue with the molecule presented below.
Noted for CC(C)(C)[C@H](NC(=O)C(F)(F)F)C(=O)N1C[C@H](OC(F)F)C[C@H]1C(=O)N[C@H](C#N)C[C@@H]1CCNC1=O : its AUC(0-t) reads 502

----------
- assay protocol: AUC (0 to 24 hrs) in Wistar Hannover rat at 1000 mg/kg, po administered as crystalline MTBE in 10% (v/v) ethanol/10% (v/v) capmul MCM/35% (v/v) PEG400/45% (v/v) Tween 80 formulation by LC-MS/MS analysis
- Format: ADME, organism-based
- details: in vivo
readout label: AUC(0-t) (µg·h/mL)
Dear colleague, please return just the value in µg·h/mL, with no unit written.

Entry under test: CC(C)(C)[C@H](NC(=O)C(F)(F)F)C(=O)N1C[C@H]2[C@@H]([C@H]1C(=O)N[C@H](C#N)C[C@@H]1CCNC1=O)C2(C)C . Its AUC(0-t) was 746

----------
- assay protocol: in vivo
- details: Wistar Hannover, rat, po, 1000 mg/kg
readout label: Cmax (µg/mL)
# number only, unit µg/mL dropped from output

For reference, reported Cmax for CC(C)(C)[C@H](NC(=O)C(F)(F)F)C(=O)N1C[C@H]2[C@@H]([C@H]1C(=O)N[C@H](C#N)C[C@@H]1CCNC1=O)C2(C)C stands at 88.3
